Assay: Cell viability assay (MTT) on normal cell line
Type: cell-based, human
Conditions: human, MCF-10A mammary gland epithelial cells, four days
Procedure: A cell viability test was performed using MCF-10A (human mammary gland epithelial) cell line to investigate the effect of 4a–e and 7a–e on normal cell lines. In this investigation, a concentration of 50 µM of the studied compound is employed for four days, after which cell viability is assessed. 4.2. Biological evaluation 4.2.1. Cytotoxic activity using MTT Assay and evaluation of IC50 MTT assay was carried out to study the effect of compounds on mammary epithelial cells (MCF-10A). […]
Overview of reported viability at 96 h, 50 µM across a group of molecules:
Record the result as number plus unit.

Consider the reported viability at 96 h, 50 µM for these molecules:
Cc1ccc2[nH]c(=O)cc(-n3cc(COc4cccc5c(OCc6cn(-c7cc(=O)[nH]c8ccc(C)cc78)nn6)cccc45)nn3)c2c1 : 93%
Cc1ccc2[nH]c(=O)cc(-n3cc(COc4cccc5cccc(OCc6cn(-c7cc(=O)[nH]c8ccc(C)cc78)nn6)c45)nn3)c2c1 : 89%
O=c1cc(-n2cc(COc3cccc4c(OCc5cn(-c6cc(=O)[nH]c7ccccc67)nn5)cccc34)nn2)c2ccccc2[nH]1 : 89%
Cn1c(=O)cc(-n2cc(COc3cccc4cccc(OCc5cn(-c6cc(=O)n(C)c7ccccc67)nn5)c34)nn2)c2ccccc21 : 90%

Please list viability at 96 h, 50 µM recorded for the molecule `COc1ccc2[nH]c(=O)cc(-n3cc(COc4cccc5c(OCc6cn(-c7cc(=O)[nH]c8ccc(OC)cc78)nn6)cccc45)nn3)c2c1`
91%

Annotate the molecule `O=c1cc(-n2cc(COc3cccc4cccc(OCc5cn(-c6cc(=O)[nH]c7ccccc67)nn5)c34)nn2)c2ccccc2[nH]1` with its measured viability at 96 h, 50 µM.
91%

Output measured viability at 96 h, 50 µM for this item: `COc1ccc2[nH]c(=O)cc(-n3cc(COc4cccc5cccc(OCc6cn(-c7cc(=O)[nH]c8ccc(OC)cc78)nn6)c45)nn3)c2c1`
87%

Please look at this molecule and report its viability at 96 h, 50 µM: `Cn1c(=O)cc(-n2cc(COc3cccc4c(OCc5cn(-c6cc(=O)n(C)c7ccccc67)nn5)cccc34)nn2)c2ccccc21`
85%
